assay: in vivo; details: female, C57BL/6, mouse, iv, 25 mg/kg
Observed property: tissue uptake at 1 h (%ID/g)
// units = %ID/g; emit number, no label

Q) Look up tissue uptake at 1 h: Nc1nc(O)c2ncn(COC(CO)CO)c2n1 [free GCV, ganciclovir]
A) 1.1
